Reported kon values for a set of binders
Molecular target: T1, recombinant human ASM protein (human, UniProt P17405 47-630)
T1 construct: Recombinant human ASM in solution; also called acid sphingomyelinase (ASM) protein
T1 sequence: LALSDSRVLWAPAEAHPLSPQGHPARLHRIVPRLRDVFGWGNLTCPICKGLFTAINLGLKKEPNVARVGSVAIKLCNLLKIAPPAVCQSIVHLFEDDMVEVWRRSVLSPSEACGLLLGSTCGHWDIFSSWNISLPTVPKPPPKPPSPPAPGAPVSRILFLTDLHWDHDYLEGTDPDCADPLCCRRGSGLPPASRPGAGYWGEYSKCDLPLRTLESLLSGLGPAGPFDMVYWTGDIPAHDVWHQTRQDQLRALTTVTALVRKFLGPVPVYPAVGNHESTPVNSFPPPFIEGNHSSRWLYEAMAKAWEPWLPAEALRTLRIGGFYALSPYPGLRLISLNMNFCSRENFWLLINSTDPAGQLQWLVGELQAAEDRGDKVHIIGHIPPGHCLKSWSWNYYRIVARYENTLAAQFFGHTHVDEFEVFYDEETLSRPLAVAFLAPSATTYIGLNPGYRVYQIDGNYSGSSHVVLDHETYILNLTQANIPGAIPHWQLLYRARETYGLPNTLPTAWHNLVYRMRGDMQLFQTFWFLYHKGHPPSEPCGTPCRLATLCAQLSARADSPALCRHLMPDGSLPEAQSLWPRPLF
Experiment: BLI (Octet), antibody on AHC sensor

BINDER	kon, M⁻¹ s⁻¹
#9104v-H14 (antibody, human IgG4 S228P, lambda, V domains shown, Full-length IgG, lambda) VH: EVQLLESGGGLVQPGGSLRLSCAASGFTFSNYYMSWVRQAPGKGLEWVSGIYYGSGKPYYADSVKGRFTISRDNSKNTLYLQMNSLRAEDTAVYYCARDTPGFDYWGQGTLVTVSS VL: QSVLTQPPSASGTPGQRVTISCTGSSSNIGNNAVNWYQQLPGTAPKLLIYYDSHRPSGVPDRFSGSKSGTSASLAISGLRSEDEADYYCGAWDYSLSAYVFGGGTKLTVLG	328000
#9104v-H18 (antibody, human IgG4 S228P, lambda, V domains shown, Full-length IgG, lambda) VH: EVQLLESGGGLVQPGGSLRLSCAASGFTFSNYYMSWVRQAPGKGLEWVSGIYYGSGTPYYSDSVKGRFTISRDNSKNTLYLQMNSLRAEDTAVYYCARDTPGFDYWGQGTLVTVSS VL: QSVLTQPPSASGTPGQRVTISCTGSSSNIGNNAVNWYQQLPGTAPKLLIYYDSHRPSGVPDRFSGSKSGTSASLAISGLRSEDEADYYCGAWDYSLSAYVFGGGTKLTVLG	97900
#9104v-H30 (antibody, human IgG4 S228P, lambda, V domains shown, Full-length IgG, lambda) VH: EVQLLESGGGLVQPGGSLRLSCAASGFTFSNYYMSWVRQAPGKGLEWVSGTYYSSGGIYYADSVKGRFTISRDNSKNTLYLQMNSLRAEDTAVYYCARDTPGFDYWGQGTLVTVSS VL: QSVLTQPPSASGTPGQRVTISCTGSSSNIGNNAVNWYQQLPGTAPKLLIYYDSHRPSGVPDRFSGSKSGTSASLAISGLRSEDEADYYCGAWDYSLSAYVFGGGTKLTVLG	199000
